B1: HDV Ribozyme (parent)
chain: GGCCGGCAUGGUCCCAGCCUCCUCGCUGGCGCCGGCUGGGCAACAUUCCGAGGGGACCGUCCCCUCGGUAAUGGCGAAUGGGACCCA

Variants of: B1
Assay: self-cleavage, relative activity (ratio to wild type); higher = more cleavage; co-transcriptional
Threshold check on self-cleavage: at or above 0.2 gives label 1, strictly below gives label 0.

// below: answered variants
{"Changes": "G38A C58G", "Class label": "label 0"}
{"Changes": "U12A G29U", "Class label": "label 0"}
{"Changes": "G5U A78U", "Class label": "label 0"}
{"Changes": "C21U U79A", "Class label": "label 0"}
{"Changes": "C14G G38A", "Class label": "label 0"}

State whether the measured self-cleavage reaches 0.2, counting equality as reaching it, for C14U G80C
label 1

Follow-up item: G11A C64A
label 1

Also C4G A71U ?
label 0

How about G25U A45U ?
label 0

Entry to check: G38C A51C
label 1
